System: reductase RRG
experiment: Substrate specificity of RRG: reducing activity against various carbonyl compounds
Type: biochemical, Rhodotorula glutinis var. dairenensis IFO 0415
testSettings: relative to reducing activity with 2-chloro-1-(3′-chlorophenyl)ethanone taken as 100%; substrate 1 mM, NADPH 0.25 mM, pH 6.5, 30° C.
One threshold, 20%, splits the recorded % Activity values: lower ones are Met, equal or higher ones are Not met.

>  <molecule>
O=Cc1ccc(Cl)cc1

>  <labelClass>
Met

$$$$
>  <molecule>
O=CC(O)CO (racemic)

>  <labelClass>
Met

$$$$
>  <molecule>
COC(=O)C1CCCC1=O (centres unmarked) [methyl 2-oxocyclopentanecarboxylate, methyl 2-oxocyclopentane carboxylate]

>  <labelClass>
Met

$$$$
>  <molecule>
O=Cc1ccc([N+](=O)[O-])cc1

>  <labelClass>
Not met

$$$$
>  <molecule>
COC(=O)CC(C)=O [methyl acetoacetate]

>  <labelClass>
Met

$$$$
>  <molecule>
CCC(=O)CC

>  <labelClass>
Met

$$$$
>  <molecule>
CC(=O)CC(C)=O

>  <labelClass>
Not met

$$$$
>  <molecule>
CC(=O)CCC(=O)O

>  <labelClass>
Not met

$$$$
>  <molecule>
CC(=O)c1cccnc1

>  <labelClass>
Not met

$$$$
>  <molecule>
CC(=O)CCO [4-hydroxy-2-butanone]

>  <labelClass>
Met

$$$$

====

Tested on: reductase RRG
experiment: Substrate specificity of RRG: reducing activity against various carbonyl compounds
Assay type: biochemical, Rhodotorula glutinis var. dairenensis IFO 0415
testSettings: relative to reducing activity with 2-chloro-1-(3′-chlorophenyl)ethanone taken as 100%; substrate 1 mM, NADPH 0.25 mM, pH 6.5, 30° C.
Each entry below carries its reported % Activity.
readout: % Activity (%)

>  <compound>
CC(=O)CC(=O)OCc1ccccc1 [benzyl acetoacetate]

>  <readout>
% Activity

>  <quantityUnit>
%

>  <measurement>
30

$$$$
>  <compound>
O=C(c1ccccc1)C(F)(F)F

>  <readout>
% Activity

>  <quantityUnit>
%

>  <measurement>
83

$$$$
>  <compound>
COC(=O)CC(=O)CCl [methyl 4-chloroacetoacetate]

>  <readout>
% Activity

>  <quantityUnit>
%

>  <measurement>
81

$$$$
>  <compound>
CC(=O)C(C)=O

>  <readout>
% Activity

>  <quantityUnit>
%

>  <measurement>
4

$$$$
>  <compound>
CC1=CC(=O)CC(C)(C)C1

>  <readout>
% Activity

>  <quantityUnit>
%

>  <measurement>
1

$$$$
>  <compound>
O=C1CCN(Cc2ccccc2)C1

>  <readout>
% Activity

>  <quantityUnit>
%

>  <measurement>
4

$$$$
>  <compound>
CCCCCC(C)=O

>  <readout>
% Activity

>  <quantityUnit>
%

>  <measurement>
11

$$$$
>  <compound>
O=Cc1ccncc1

>  <readout>
% Activity

>  <quantityUnit>
%

>  <measurement>
55

$$$$
>  <compound>
O=C(CCl)c1cccc(Cl)c1

>  <readout>
% Activity

>  <quantityUnit>
%

>  <measurement>
100

$$$$
>  <compound>
CC(=O)c1cccc([N+](=O)[O-])c1

>  <readout>
% Activity

>  <quantityUnit>
%

>  <measurement>
35

$$$$
>  <compound>
CCCCCC=O

>  <readout>
% Activity

>  <quantityUnit>
%

>  <measurement>
10

$$$$
>  <compound>
CC(=O)c1ccc(Cl)cc1

>  <readout>
% Activity

>  <quantityUnit>
%

>  <measurement>
5

$$$$
>  <compound>
CCC(=O)C(=O)O

>  <readout>
% Activity

>  <quantityUnit>
%

>  <measurement>
7

$$$$
>  <compound>
CCCCC(C)=O

>  <readout>
% Activity

>  <quantityUnit>
%

>  <measurement>
13

$$$$
>  <compound>
CCCCCCCCOC(=O)CC(=O)CCl [n-octyl 4-chloroacetoacetate]

>  <readout>
% Activity

>  <quantityUnit>
%

>  <measurement>
72

$$$$
>  <compound>
O=Cc1ccccc1Cl

>  <readout>
% Activity

>  <quantityUnit>
%

>  <measurement>
24

$$$$
>  <compound>
CCC(=O)Cc1ccccc1

>  <readout>
% Activity

>  <quantityUnit>
%

>  <measurement>
20

$$$$
>  <compound>
O=Cc1ccccc1

>  <readout>
% Activity

>  <quantityUnit>
%

>  <measurement>
25

$$$$
>  <compound>
CCOC(=O)CC(=O)CBr [ethyl 4-bromoacetoacetate]

>  <readout>
% Activity

>  <quantityUnit>
%

>  <measurement>
33

$$$$
>  <compound>
COC(=O)C(C)=O [methyl pyrucvate]

>  <readout>
% Activity

>  <quantityUnit>
%

>  <measurement>
208

$$$$
>  <compound>
O=C(c1ccccc1)C(O)c1ccccc1 (stereo not drawn)

>  <readout>
% Activity

>  <quantityUnit>
%

>  <measurement>
9

$$$$
>  <compound>
CC(=O)C1CC1

>  <readout>
% Activity

>  <quantityUnit>
%

>  <measurement>
3

$$$$
>  <compound>
CC(C)=O

>  <readout>
% Activity

>  <quantityUnit>
%

>  <measurement>
11

$$$$
>  <compound>
CCOC(=O)CC(=O)CCl [ethyl 4-chloroacetoacetate]

>  <readout>
% Activity

>  <quantityUnit>
%

>  <measurement>
12

$$$$
>  <compound>
CCOC(=O)C(C)=O [ethly pyruvate]

>  <readout>
% Activity

>  <quantityUnit>
%

>  <measurement>
247

$$$$
>  <compound>
CCOC(=O)CC(=O)COCc1ccccc1 [ethyl 4-benzyloxyacetoacetate]

>  <readout>
% Activity

>  <quantityUnit>
%

>  <measurement>
58

$$$$
>  <compound>
CCOC(=O)CC(=O)CO [ethyl 4-hydroxyacetoacetate]

>  <readout>
% Activity

>  <quantityUnit>
%

>  <measurement>
22

$$$$
>  <compound>
O=C1COC(=O)C1 [tetrahydrofuran-2,4-dione]

>  <readout>
% Activity

>  <quantityUnit>
%

>  <measurement>
14

$$$$
>  <compound>
CC(=O)C=O

>  <readout>
% Activity

>  <quantityUnit>
%

>  <measurement>
13

$$$$
>  <compound>
O=Cc1ccccn1

>  <readout>
% Activity

>  <quantityUnit>
%

>  <measurement>
45

$$$$
>  <compound>
CCOC(=O)CC(C)=O [ethyl acetoacetate]

>  <readout>
% Activity

>  <quantityUnit>
%

>  <measurement>
35

$$$$
>  <compound>
CCOC(=O)CC(=O)COC(C)=O [ethyl 4-acetoxyacetoacetate]

>  <readout>
% Activity

>  <quantityUnit>
%

>  <measurement>
46

$$$$
>  <compound>
O=C1CCCC1

>  <readout>
% Activity

>  <quantityUnit>
%

>  <measurement>
9

$$$$
>  <compound>
CC(=O)c1cccc(O)c1 [m-hydroxyacetophenone]

>  <readout>
% Activity

>  <quantityUnit>
%

>  <measurement>
16

$$$$
>  <compound>
O=Cc1ccccc1[N+](=O)[O-]

>  <readout>
% Activity

>  <quantityUnit>
%

>  <measurement>
31

$$$$
>  <compound>
CC(=O)CC(C)C

>  <readout>
% Activity

>  <quantityUnit>
%

>  <measurement>
10

$$$$
>  <compound>
CC(=O)c1ccc(F)cc1

>  <readout>
% Activity

>  <quantityUnit>
%

>  <measurement>
30

$$$$
>  <compound>
CCC(=O)c1ccccc1

>  <readout>
% Activity

>  <quantityUnit>
%

>  <measurement>
14

$$$$
>  <compound>
CC(=O)CC(=O)OC(C)(C)C [tert-butyl acetoacetate]

>  <readout>
% Activity

>  <quantityUnit>
%

>  <measurement>
1

$$$$
>  <compound>
CCOC(=O)C1CCC(=O)C1 (stereo not drawn) [ethyl 3-oxocyclopentanecarboxylate]

>  <readout>
% Activity

>  <quantityUnit>
%

>  <measurement>
32

$$$$
>  <compound>
CC12CCC(C(=O)C1=O)C2(C)C (stereo not drawn)

>  <readout>
% Activity

>  <quantityUnit>
%

>  <measurement>
33

$$$$
>  <compound>
CCC=O

>  <readout>
% Activity

>  <quantityUnit>
%

>  <measurement>
4

$$$$
>  <compound>
COc1ccc(C(C)=O)cc1OC

>  <readout>
% Activity

>  <quantityUnit>
%

>  <measurement>
46

$$$$
>  <compound>
CCCC(=O)c1ccccc1

>  <readout>
% Activity

>  <quantityUnit>
%

>  <measurement>
8

$$$$
>  <compound>
O=Cc1cccc([N+](=O)[O-])c1

>  <readout>
% Activity

>  <quantityUnit>
%

>  <measurement>
64

$$$$
>  <compound>
CCOC(=O)CC(=O)CN=[N+]=[N-] [ethyl 4-azideacetoacetate]

>  <readout>
% Activity

>  <quantityUnit>
%

>  <measurement>
11

$$$$
>  <compound>
CC(=O)c1ccccn1

>  <readout>
% Activity

>  <quantityUnit>
%

>  <measurement>
60

$$$$
>  <compound>
CC(=O)c1ccncc1

>  <readout>
% Activity

>  <quantityUnit>
%

>  <measurement>
44

$$$$
